- Experiment Summary: Competitive inhibition of alpha-glucosidase (unknown origin) by Dixon plot analysis
- Design: species or system Homo sapiens
Test Readout: Ki (nM)
Note: unit nM is implicit; provide only the numeric part.

Prompt: Would you kindly share the measured Ki for COC1(c2ccc(O)c(O)c2)Oc2cc(O)cc(O)c2C1=O (stereo unspecified) ?
Completion: 709

----------
- Experiment Summary: Inhibition of alpha-glucosidase (unknown origin) using p-nitrophenyl-alpha-D-glucopyranoside as substrate
- Particulars: read-out: IC50
Record form. Attribute: IC50. Fill in for each entry.
Provide the reading as a plain figure in µM.

Prompt: Entry COc1cc(O)c2c(=O)c(O)c(-c3ccc(O)cc3)oc2c1 [RHAMNOCITRIN] has what IC50?
Completion: 731

Prompt: Give its IC50 value. Item: O=c1c(O)c(-c2ccc(O)cc2)oc2cc(O)cc(O)c12 [KAEMPFEROL]
Completion: 420

Prompt: Can you look up the measured IC50 of COC1(c2ccc(O)c(O)c2)Oc2cc(O)cc(O)c2C1=O (stereo not drawn) for me?
Completion: 1.8

Hey, just so you know, these numbers are from ChEMBL document CHEMBL4699626.
